# Test system: mouse macrophages
# Measurement Notes: stimulated release of TNF-α from mouse macrophages
# Format: cell-based
# Setup Conditions: Macrophage; table of 133-139 (two lipid side chains), mouse macrophages; read-out: EC50 (nM) (mouse)
Simple rule here: EC50 less than 600 nM is t, otherwise f.

// known answers, use as guide
Compound	Assigned Class
CCCCCCCCNC(=O)[C@@H]1CN(C(=O)c2ccc(C(=O)N3C[C@@H](C(=O)N[C@H]4C[C@@H]4c4ccccc4)[C@H](C(=O)N[C@H]4C[C@@H]4c4ccccc4)C3)cc2)C[C@H]1C(=O)NCCCCCCCC [Compound 137]	t
CCCCCCNC(=O)[C@@H]1CN(C(=O)c2ccc(C(=O)N3C[C@@H](C(=O)N[C@H]4C[C@@H]4c4ccccc4)[C@H](C(=O)N[C@H]4C[C@@H]4c4ccccc4)C3)cc2)C[C@H]1C(=O)NCCCCCC [Compound 138]	t
CCCCCCCCCCNC(=O)[C@@H]1CN(C(=O)c2ccc(C(=O)N3C[C@@H](C(=O)N[C@H]4C[C@@H]4c4ccccc4)[C@H](C(=O)N[C@H]4C[C@@H]4c4ccccc4)C3)cc2)C[C@H]1C(=O)NCCCCCCCCCC [Compound 136]	t
CCCCCCCCCCCCCCNC(=O)[C@@H]1CN(C(=O)c2ccc(C(=O)N3C[C@@H](C(=O)N[C@H]4C[C@@H]4c4ccccc4)[C@H](C(=O)N[C@H]4C[C@@H]4c4ccccc4)C3)cc2)C[C@H]1C(=O)NCCCCCCCCCCCCCC [Compound 134]	f
CCCCCCCCCCCCNC(=O)[C@@H]1CN(C(=O)c2ccc(C(=O)N3C[C@@H](C(=O)N[C@H]4C[C@@H]4c4ccccc4)[C@H](C(=O)N[C@H]4C[C@@H]4c4ccccc4)C3)cc2)C[C@H]1C(=O)NCCCCCCCCCCCC [Compound 135]	f
CCCCCCCCCCCCCCCCNC(=O)[C@@H]1CN(C(=O)c2ccc(C(=O)N3C[C@@H](C(=O)N[C@H]4C[C@@H]4c4ccccc4)[C@H](C(=O)N[C@H]4C[C@@H]4c4ccccc4)C3)cc2)C[C@H]1C(=O)NCCCCCCCCCCCCCCCC [Compound 133]	f

Prompt line: Hello, is EC50 of the following compound strictly smaller than 600 nM? CCCCNC(=O)[C@@H]1CN(C(=O)c2ccc(C(=O)N3C[C@@H](C(=O)N[C@H]4C[C@@H]4c4ccccc4)[C@H](C(=O)N[C@H]4C[C@@H]4c4ccccc4)C3)cc2)C[C@H]1C(=O)NCCCC [Compound 139]
Response line: t

---

# Test system: differentiated human THP-1 cells
# Measurement Notes: stimulated release of TNF-α from differentiated human THP-1 cells (ELISA, dose-response)
# Format: cell-based
# Setup Conditions: Homo sapiens, THP-1, running text; read-out: EC50, stimulated release of TNF-α from differentiated human THP-1 cells
Reported pEC50 by item:
Please keep in mind that pEC50 is minus log10 of the molar concentration; only the number is needed.

// worked examples, pEC50 included
Compound	pEC50
O=C(NCCc1ccccc1)[C@@H]1CN(C(=O)c2ccc(C(=O)N3C[C@@H](C(=O)NCCc4ccccc4)[C@H](C(=O)N[C@H]4C[C@@H]4c4ccccc4)C3)cc2)C[C@H]1C(=O)N[C@H]1C[C@@H]1c1ccccc1 (stereo in doubt)	7.10
O=C(NCCc1ccc(F)cc1)[C@@H]1CN(C(=O)c2ccc(C(=O)N3C[C@@H](C(=O)NCCc4ccc(F)cc4)[C@H](C(=O)NCCc4ccc(F)cc4)C3)cc2)C[C@H]1C(=O)NCCc1ccc(F)cc1	7.30
O=C(N[C@H]1C[C@@H]1c1ccccc1)[C@H]1CCN(C(=O)c2ccc(C(=O)N3C[C@@H](C(=O)N[C@H]4C[C@@H]4c4ccccc4)[C@H](C(=O)N[C@H]4C[C@@H]4c4ccccc4)C3)cc2)C1	6.70
O=C(NCCc1ccc(F)cc1)[C@H]1CN(C(=O)c2ccc(C(=O)N3C[C@H](C(=O)NCCc4ccc(F)cc4)[C@@H](C(=O)NCCc4ccc(F)cc4)C3)cc2)C[C@@H]1C(=O)NCCc1ccc(F)cc1 (racemic)	7.00

Let us move to another entry and its pEC50.
Prompt line: What measured pEC50 goes with `O=C(N[C@H]1C[C@@H]1c1ccccc1)[C@@H]1CN(C(=O)c2ccc(C(=O)N3CCCC3)cc2)C[C@H]1C(=O)N[C@H]1C[C@@H]1c1ccccc1` ?
Response line: 5.70
